Target: human α7 nAchR (Homo sapiens (Human), UniProt P36544)
Sequence (P36544 23-502): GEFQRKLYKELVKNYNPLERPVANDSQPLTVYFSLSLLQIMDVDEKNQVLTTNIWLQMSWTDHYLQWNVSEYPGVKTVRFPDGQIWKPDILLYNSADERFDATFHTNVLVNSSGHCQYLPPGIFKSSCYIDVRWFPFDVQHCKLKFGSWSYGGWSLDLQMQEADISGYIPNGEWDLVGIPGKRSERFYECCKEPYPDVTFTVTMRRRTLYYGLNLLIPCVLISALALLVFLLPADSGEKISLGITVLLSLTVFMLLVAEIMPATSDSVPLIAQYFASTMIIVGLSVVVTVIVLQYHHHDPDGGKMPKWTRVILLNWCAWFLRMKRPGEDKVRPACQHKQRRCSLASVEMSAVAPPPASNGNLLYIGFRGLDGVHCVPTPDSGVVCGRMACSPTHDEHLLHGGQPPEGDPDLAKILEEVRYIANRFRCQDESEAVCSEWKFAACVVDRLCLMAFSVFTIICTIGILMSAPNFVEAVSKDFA
Experiment: Human α7 nicotinic acetylcholine receptor [Ca2+]i assay (PAM, Ca2+ fluorometry)
Details: Flp-In 293 cells expressing human α7 nAchR and human RIC-3; in presence of saturating agonist (mostly PNU-282987, 1 μM)
Procedure: Biological Activity Human α7 Nicotinic Acetylcholine Receptor [Ca^2+]i Assay Cells: Flp-In 293 cells stably expressing human α7 nAchR and human RIC-3 (α7 cells, generated in house.) […] α7 cells stably expressing human α7 nAchR were cultured in the medium detailed above, and were split twice a week. […] Baseline and agonist-evoked [Ca2+]i-changes were monitored with FlexStation II (Molecular Devices, Sunnyvale, Calif.), a plate reader fluorometer with integrated 8-channel fluid addition capability. […]
Measurement Kind: EC50 (nM)
Numbers only, in nM.

                               smiles_entry  measurement_kind  units_label  measured_number
0  COc1ccc(C2=NS(=O)(=O)N(C)C(C(=O)Nc3cccc(C#N)c3)=C2)cc1OC              EC50           nM             1800
1  CCCn1ccc(NC(=O)C2=CC(c3ccc(OC)c(OC)c3)=NS(=O)(=O)N2C)n1              EC50           nM             2000

Moving on to the next compound.
q: Which EC50 reading was recorded for the compound COc1ccc(C2=NS(=O)(=O)N(C(C)C)C(C(=O)Nc3cccc(Nc4cccc(F)n4)n3)=C2)cc1OC ?
a: 1200

====

molecular target: human α7 nAchR (Homo sapiens (Human), UniProt P36544); experiment: Human α7 nicotinic acetylcholine receptor [Ca2+]i assay (PAM, Ca2+ fluorometry); conditions: Flp-In 293 cells expressing human α7 nAchR and human RIC-3; in presence of saturating agonist (mostly PNU-282987, 1 μM)
Decision: EC50 beneath 300 nM gives true; EC50 meeting or exceeding 300 nM gives false.

Solved cases below.
>>> print(df.to_string())
                                   compound                             tested_target  label
0  COc1ccc(C2=NS(=O)(=O)N([C@H]3CCOC3)C(C(=O)Nc3cccc(C(F)(F)F)n3)=C2)cc1OC [Example 83]  human α7 nAchR (Homo sapiens (Human), UniProt P36544)  false
1  COc1ccc(C2=NS(=O)(=O)N(C)C(C(=O)Nc3ccnc(C)c3)=C2)cc1OC [Example 15]  human α7 nAchR (Homo sapiens (Human), UniProt P36544)  false
2  CC(C)N1C(C(=O)Nc2cncc(C(F)(F)F)n2)=CC([C@H]2CC[C@H](C(F)(F)F)CC2)=NS1(=O)=O [Example 124]  human α7 nAchR (Homo sapiens (Human), UniProt P36544)   true

q: Could you please tell me whether EC50 recorded for COc1ccc(C2=NS(=O)(=O)N(C)C(C(=O)Nc3cccc(C)c3)=C2)cc1OC [Example 1] is less than 300 nM?
a: false

q: Could you please tell me whether EC50 recorded for O=C(Nc1cccc(F)n1)C1=CC([C@H]2CC[C@H](C(F)(F)F)CC2)=NS(=O)(=O)N1CC1CC1 [Example 132] is less than 300 nM?
a: true

q: Could you please tell me whether EC50 recorded for CCN1C(C(=O)Nc2cccc(C(F)F)n2)=CC([C@H]2CC[C@H](C(F)(F)F)CC2)=NS1(=O)=O [Example 80] is less than 300 nM?
a: false

q: Could you please tell me whether EC50 recorded for COc1ccc(C2=NS(=O)(=O)N(CC(F)(F)F)C(C(=O)Nc3cccc(C)c3)=C2)cc1OC [Example 119] is less than 300 nM?
a: false

====

Task for the reader: assign each of the following compounds its reported pEC50.
Molecular target: human α7 nAchR (Homo sapiens (Human), UniProt P36544)
Experiment: Human α7 nicotinic acetylcholine receptor [Ca2+]i assay (PAM, Ca2+ fluorometry)
Conditions: Flp-In 293 cells expressing human α7 nAchR and human RIC-3; in presence of saturating agonist (mostly PNU-282987, 1 μM)
Protocol: Biological Activity Human α7 Nicotinic Acetylcholine Receptor [Ca^2+]i Assay Cells: Flp-In 293 cells stably expressing human α7 nAchR and human RIC-3 (α7 cells, generated in house.) […] α7 cells stably expressing human α7 nAchR were cultured in the medium detailed above, and were split twice a week. […] Baseline and agonist-evoked [Ca2+]i-changes were monitored with FlexStation II (Molecular Devices, Sunnyvale, Calif.), a plate reader fluorometer with integrated 8-channel fluid addition capability. […]
Answers are plain numbers, as −log10 of the molar value.

In [3]: df
Out[3]:
                               smiles_entry  measured_number
0  CCN1C(C(=O)Nc2cccc(C(F)(F)F)n2)=CC(C2CCC(F)(F)CC2)=NS1(=O)=O             6.85
1  COc1ccc(C2=NS(=O)(=O)N(C)C(C(=O)Nc3cccc(C)c3)=C2)cc1Cl             6.96
2  CCN1C(C(=O)Nc2cc(Cl)ccn2)=CC([C@H]2CC[C@H](C(F)(F)F)CC2)=NS1(=O)=O             5.55

Moving on to the next compound.
q: Which pEC50 reading was recorded for the compound CCN1C(C(=O)Nc2cccc(C(F)(F)F)n2)=CC([C@H]2CC[C@H](C)CC2)=NS1(=O)=O ?
a: 6.66

====

Task for the reader: assign each of the following compounds its reported pEC50.
target: UniProt P36544; experiment: Human α7 nicotinic acetylcholine receptor [Ca2+]i assay (PAM, Ca2+ fluorometry); conditions: Flp-In 293 cells expressing human α7 nAchR and human RIC-3; in presence of saturating agonist (mostly PNU-282987, 1 μM)
Give bare numbers, as −log10 of the molar value.

Example cases with answers are listed next.
>>> df
                               smiles_entry   tested_target  measured_number
0  CCCN1C(C(=O)Nc2cccc(Cl)c2)=CC(c2ccc(OC)c(OC)c2)=NS1(=O)=O  UniProt P36544             6.42
1  CCN1C(C(=O)Nc2ccc(OC)c(Cl)c2)=CC(c2ccc(OC)c(OC)c2)=NS1(=O)=O  UniProt P36544             6.51

Provide the reported pEC50 of each entry below, same order.
1. CC[C@@H](C)N1C(C(=O)Nc2cccc(C(F)(F)F)n2)=CC(c2ccc(OC)c(OC)c2)=NS1(=O)=O
2. CCN1C(C(=O)Nc2cncc(C(F)(F)F)n2)=CC([C@H]2CC[C@H](C(F)(F)F)CC2)=NS1(=O)=O
3. Cc1cccc(NC(=O)C2=CC(c3ccc4c(cnn4C)c3)=NS(=O)(=O)N2C)c1
4. CCCN1C(C(=O)Nc2cccc(C(F)(F)F)c2)=CC(c2cc(OC)c(OC)cc2F)=NS1(=O)=O
5. CCN1C(C(=O)Nc2ccc(C)cc2)=CC(c2ccc(OC)c(C)c2)=NS1(=O)=O
6. COc1ccc(C2=NS(=O)(=O)N(C(C)C)C(C(=O)Nc3cccc(C(F)(F)F)c3)=C2)cc1OC

a:
6.92
6.52
6.43
6.48
6.77
6.54

====

target: human α7 nAchR (Homo sapiens (Human), UniProt P36544); assay: Human α7 nicotinic acetylcholine receptor [Ca2+]i assay (PAM, Ca2+ fluorometry); conditions: Flp-In 293 cells expressing human α7 nAchR and human RIC-3; in presence of saturating agonist (mostly PNU-282987, 1 μM)
Measurement Kind: pEC50
Give bare numbers, as −log10 of the molar value.

Example cases with answers are listed next.
                                   compound                             tested_target  measured_number
0  COc1ccc(C2=NS(=O)(=O)N(C)C(C(=O)Nc3cccc(C(C)=O)c3)=C2)cc1OC [Example 4]  human α7 nAchR (Homo sapiens (Human), UniProt P36544)             6.01
1  COc1ccc(NC(=O)C2=CC(c3ccc(OC)c(OC)c3)=NS(=O)(=O)N2C)cc1 [Example 11]  human α7 nAchR (Homo sapiens (Human), UniProt P36544)             6.36
2  CCN1C(C(=O)Nc2ccc(OC(F)(F)F)cc2)=CC(c2ccc(OC)c(OC)c2)=NS1(=O)=O [Example 32]  human α7 nAchR (Homo sapiens (Human), UniProt P36544)             6.14

Moving on to the next compound.
q: Which pEC50 reading was recorded for the compound CCN1C(C(=O)Nc2cccc(C(F)(F)F)n2)=CC(C2CCCCCC2)=NS1(=O)=O [Example 66] ?
a: 6.37

====

target: human α7 nAchR (Homo sapiens (Human), UniProt P36544); assay: Human α7 nicotinic acetylcholine receptor [Ca2+]i assay (PAM, Ca2+ fluorometry); conditions: Flp-In 293 cells expressing human α7 nAchR and human RIC-3; in presence of saturating agonist (mostly PNU-282987, 1 μM)
Measurement Kind: log10(EC50) (log10 of the value in µM)
Recall that a logarithmic scale is used here: each number is log10 of EC50 in µM.

Example cases with answers are listed next.
>>> print(df.to_string())
                               smiles_entry                             tested_target  measured_number
0  CCN1C(C(=O)Nc2cncc(F)n2)=CC([C@H]2CC[C@H](C(F)(F)F)CC2)=NS1(=O)=O  human α7 nAchR (Homo sapiens (Human), UniProt P36544)            -0.72
1  CCN1C(C(=O)Nc2cccc(C(F)(F)F)n2)=CC(C2CC=CC2)=NS1(=O)=O  human α7 nAchR (Homo sapiens (Human), UniProt P36544)            -0.02
2  COc1ccc(C2=NS(=O)(=O)N(C)C(C(=O)Nc3cccc(C)c3)=C2)cc1C  human α7 nAchR (Homo sapiens (Human), UniProt P36544)            -0.68
3  CC(C)N1C(C(=O)Nc2cccc(F)n2)=CC([C@H]2CC[C@H](C(F)(F)F)CC2)=NS1(=O)=O  human α7 nAchR (Homo sapiens (Human), UniProt P36544)            -1.35
4  CCCN1C(C(=O)Nc2ccc(OC)cc2)=CC(c2ccc(OC)c(OC)c2)=NS1(=O)=O  human α7 nAchR (Homo sapiens (Human), UniProt P36544)            -1.12

Provide the reported log10(EC50) of each entry below, same order.
1. CCN1C(C(=O)Nc2ccnc(C(F)(F)F)n2)=CC([C@H]2CC[C@H](C(F)(F)F)CC2)=NS1(=O)=O
2. CCN1C(C(=O)Nc2ccc(C)cc2)=CC(c2ccc(OC)c(C(F)(F)F)c2)=NS1(=O)=O
3. CCN1C(C(=O)Nc2cccc(Cl)c2)=CC(c2ccc(OC)c(C)c2)=NS1(=O)=O
4. CCN1C(C(=O)Nc2cccc(C(F)(F)F)c2)=CC(c2ccc(OC)c(C(F)(F)F)c2)=NS1(=O)=O
5. C=CCN1C(C(=O)Nc2cccc(C(F)(F)F)c2)=CC(c2ccc(OC)c(OC)c2)=NS1(=O)=O
6. CCCCN1C(C(=O)Nc2cccc(C(F)(F)F)c2)=CC(c2ccc(OC)c(OC)c2)=NS1(=O)=O

a:
1. -0.48
2. -1.00
3. -0.30
4. -0.82
5. -0.66
6. -0.70
